target-or-system: T1, biotinylated mesothelin ECD (Homo sapiens, UniProt Q13421)
T1 construct: made in house; host or cells: HEK293F (transient)
T1 sequence (Q13421 with tags, fused parts or gaps): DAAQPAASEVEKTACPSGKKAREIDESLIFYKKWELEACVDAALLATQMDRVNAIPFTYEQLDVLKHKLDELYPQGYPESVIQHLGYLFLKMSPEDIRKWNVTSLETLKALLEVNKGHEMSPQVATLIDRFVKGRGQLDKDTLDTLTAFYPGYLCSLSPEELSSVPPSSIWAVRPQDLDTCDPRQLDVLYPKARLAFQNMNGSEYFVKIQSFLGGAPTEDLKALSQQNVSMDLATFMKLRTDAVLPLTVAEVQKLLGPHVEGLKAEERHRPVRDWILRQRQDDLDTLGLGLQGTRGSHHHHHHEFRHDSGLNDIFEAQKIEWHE
assay-comment: Surface plasmon resonance (Biacore T200) binding affinity of purified scFvs
condition-context: 1:1 Binding fit

molecule	kd [s⁻¹]
M17: human anti-mesothelin scFv SEQ ID NO: 55; full CAR SEQ ID NO: 79 (protein) scFv: EVQLVESGGGLVQPGRSLRLSCAASGFTFDDYAMHWVRQAPGKGLEWVSGISWNSGSTGYADSVKGRFTISRDNAKNSLYLQMNSLRAEDTALYYCAKDSSSWYGGGSAFDIWGQGTMVTVSSGGGGSGGGGSGGGGSSSELTQDPAVSVALGQTVRITCQGDSLRSYYASWYQQKPGQAPVLVIYGKNNRPSGIPDRFSGSSSGNTASLTITGAQAEDEADYYCNSRGSSGNHYVFGTGTKVTVL	0.0145
M16: human anti-mesothelin scFv SEQ ID NO: 54; full CAR SEQ ID NO: 78 (protein) scFv: EVQLVESGGGLVQPGRSLRLSCAASGFTFDDYAMHWVRQAPGKGLEWVSGISWNSGSTGYADSVKGRFTISRDNAKNSLYLQMNSLRAEDTALYYCAKDSSSWYGGGSAFDIWGQGTMVTVSSGGGGSGGGGSGGGGSSSELTQEPAVSVALGQTVRITCQGDSLRSYYASWYQQKPGQAPVLVIFGRSRRPSGIPDRFSGSSSGNTASLIITGAQAEDEADYYCNSRDNTANHYVFGTGTKLTVL	0.00395
M5: human anti-mesothelin scFv SEQ ID NO: 43; full CAR SEQ ID NO: 67 (protein) scFv: QVQLVQSGAEVEKPGASVKVSCKASGYTFTDYYMHWVRQAPGQGLEWMGWINPNSGGTNYAQKFQGRVTMTRDTSISTAYMELSRLRSDDTAVYYCASGWDFDYWGQGTLVTVSSGGGGSGGGGSGGGGSGGGGSDIVMTQSPSSLSASVGDRVTITCRASQSIRYYLSWYQQKPGKAPKLLIYTASILQNGVPSRFSGSGSGTDFTLTISSLQPEDFATYYCLQTYTTPDFGPGTKVEIK	0.00113
M14: human anti-mesothelin scFv SEQ ID NO: 52; full CAR SEQ ID NO: 76 (protein) scFv: QVQLVQSGAEVRAPGASVKISCKASGFTFRGYYIHWVRQAPGQGLEWMGIINPSGGSRAYAQKFQGRVTMTRDTSTSTVYMELSSLRSDDTAMYYCARTASCGGDCYYLDYWGQGTLVTVSSGGGGSGGGGSGGGGSGGGGSDIQMTQSPPTLSASVGDRVTITCRASENVNIWLAWYQQKPGKAPKLLIYKSSSLASGVPSRFSGSGSGAEFTLTISSLQPDDFATYYCQQYQSYPLTFGGGTKVDIK	0.00251
